test-target: T1, human GIP receptor (human, UniProt P48546 22-466)
T1 sequence (looked up): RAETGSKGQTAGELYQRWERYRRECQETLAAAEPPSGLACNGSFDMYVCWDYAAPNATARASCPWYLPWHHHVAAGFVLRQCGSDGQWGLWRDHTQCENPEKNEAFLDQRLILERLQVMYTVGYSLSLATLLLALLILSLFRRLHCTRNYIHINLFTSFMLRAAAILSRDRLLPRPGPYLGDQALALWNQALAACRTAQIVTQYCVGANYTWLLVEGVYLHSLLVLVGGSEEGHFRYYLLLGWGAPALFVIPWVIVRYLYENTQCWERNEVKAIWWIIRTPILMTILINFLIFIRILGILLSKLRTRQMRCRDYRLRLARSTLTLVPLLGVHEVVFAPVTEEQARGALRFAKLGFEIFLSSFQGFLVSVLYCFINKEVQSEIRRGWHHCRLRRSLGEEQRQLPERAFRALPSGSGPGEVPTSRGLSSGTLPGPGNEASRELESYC
protocol: cell-based or functional assay
*1 amine or outer side, *2 acyl side, *3 side chain or, on linkers, in order; H or OH if unused. Where no end group is shown, it is not given here. Side-chain parts run from the residue outwards. [ ]: non-standard residue; d: D form. The star is where a group is joined. C18 diacid = O=C(O)CCCCCCCCCCCCCCCCC(=O)*; C16 diacid = O=C(O)CCCCCCCCCCCCCCC(=O)*; γGlu = O=C(O)[C@H](CCC(=O)[*:2])N[*:1]; Glutaryl = O=C(CCCC(=O)[*:2])[*:1]; Nle = CCCC[C@H](N)C(=O)O; PEG = not defined here; AEEA = NCCOCCOCC(=O)O; Aib = CC(C)(N)C(=O)O
// reported cAMP antagonism pIC50 per item
Give a plain numeric answer without units written out.

binder	cAMP antagonism pIC50
EGTFISDYSIA[Nle]DKIK([AEEA-AEEA-γGlu-C18 diacid])QQDFVEWLLAQKPSSGAPPPS-OH [AT683]	7.8
EGTFISDYSI[Aib]MDKIK(C16 diacid)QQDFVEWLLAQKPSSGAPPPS-OH [AT665]	9.8
EGTFISDYSI[Aib][Nle]DKIK(C16 diacid)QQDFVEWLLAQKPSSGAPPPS-OH [AT667]	9.1

Look up cAMP antagonism pIC50: TFISDYK([PEG-PEG-γGlu-C18 diacid])IAMDKIHQQDFVNWLLAGGPSSGAPPPS (not fully specified (C-terminus); reading uncertain) [AT602]
7.5

Look up cAMP antagonism pIC50: TFISDYK([AEEA-AEEA-γGlu-C18])IAMDKIHQQDFVNWLLAQKGKKNDW-OH [AT560]
7.6

Look up cAMP antagonism pIC50: EGTFISDYSIALDKIKQQDFVNWLLAQKPSSGAPPPS (Nle at 14; K18: C16-diacid; C-term COOH) [AT619]
8.7

Look up cAMP antagonism pIC50: TFISDYK([PEG-PEG-γGlu-C18 diacid])IAMDKIHQQDFVNWLLAQKPSSGAPPPS-NH2 (reading uncertain; also: 2xPEG: PEG unit not given here) [AT597]
7.1

Look up cAMP antagonism pIC50: Glutaryl-GTFISDYSIA[Nle]DKIK(C16 diacid)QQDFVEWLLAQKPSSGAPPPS-OH [AT700]
9.2

Look up cAMP antagonism pIC50: EGTFISDYSIALDKIKQQDFVNWLLAQKPSSGAPPPS (βGlu at 3; Aib at 13; Nle at 14; K18: C16-diacid; C-term COOH) [AT703]
8.6
